system: human lung adenocarcinoma epithelial cell line A549; assay: MTT assay, inhibition of tumor cell growth (A549); type: cell-based; conditions: 72 hours incubation, read-out: IC50 on the tumor cells A549
Please use 1 for IC50 under 10 µM and -1 for everything else, ties included.

molecule=Cc1ccc2c(c1)C(=C1Oc3ccccc3C1=NO)C(=O)N2C(C)C classification=1
molecule=CC(C)N1C(=O)C(=C2Oc3ccccc3C2=O)c2cc(Cl)ccc21 classification=1

Report whether reported IC50 is lower than 10 µM (strictly) for CCN1C(=O)C(=C2Oc3ccc(Cl)cc3C2=O)c2ccccc21
-1

Query Cc1ccc2c(c1)C(=C1Oc3ccccc3C1=NO)C(=O)N2Cc1ccccc1 next
1

Query O=C1C(=C2Oc3ccccc3C2=NO)c2ccccc2N1Cc1ccccc1 next
1

Query CN1C(=O)C(=C2C(=O)Oc3ccccc32)c2ccc(Cl)cc21 next
-1

Query CC(C)N1C(=O)C(=C2Oc3ccccc3C2=NO)c2cc(Cl)ccc21 [Compound 35] next
-1

Query CCN1C(=O)C(=C2Oc3ccccc3C2=O)c2ccccc21 next
-1

Query COc1ccc2c(c1)C(=C1C(=O)N(Cc3ccccc3)c3ccccc31)C(=O)O2 next
1

Query CC(C)N1C(=O)C(=C2Oc3ccccc3C2=NO)c2ccccc21 next
-1
